Data origin: ChEMBL document CHEMBL4371035

Assay: Aqueous solubility of the compound
Type: physicochemical
Settings: water (aqueous)
reported.property: solubility

# solubility (molecule: COc1ccc(-c2ccc(S(=O)(=O)N(CCNC(=O)c3cccc(C(=O)NCCN([C@H](CCN4C(=O)c5ccccc5C4=O)C(=O)NO)S(=O)(=O)c4ccc(-c5ccc(OC)cc5)cc4)c3)[C@H](CCN3C(=O)c4ccccc4C3=O)C(=O)NO)cc2)cc1 ) is > 1000 µM

---

Biological target: Matrix metalloproteinase-9 (Homo sapiens)
Sequence (P14780 whole entry): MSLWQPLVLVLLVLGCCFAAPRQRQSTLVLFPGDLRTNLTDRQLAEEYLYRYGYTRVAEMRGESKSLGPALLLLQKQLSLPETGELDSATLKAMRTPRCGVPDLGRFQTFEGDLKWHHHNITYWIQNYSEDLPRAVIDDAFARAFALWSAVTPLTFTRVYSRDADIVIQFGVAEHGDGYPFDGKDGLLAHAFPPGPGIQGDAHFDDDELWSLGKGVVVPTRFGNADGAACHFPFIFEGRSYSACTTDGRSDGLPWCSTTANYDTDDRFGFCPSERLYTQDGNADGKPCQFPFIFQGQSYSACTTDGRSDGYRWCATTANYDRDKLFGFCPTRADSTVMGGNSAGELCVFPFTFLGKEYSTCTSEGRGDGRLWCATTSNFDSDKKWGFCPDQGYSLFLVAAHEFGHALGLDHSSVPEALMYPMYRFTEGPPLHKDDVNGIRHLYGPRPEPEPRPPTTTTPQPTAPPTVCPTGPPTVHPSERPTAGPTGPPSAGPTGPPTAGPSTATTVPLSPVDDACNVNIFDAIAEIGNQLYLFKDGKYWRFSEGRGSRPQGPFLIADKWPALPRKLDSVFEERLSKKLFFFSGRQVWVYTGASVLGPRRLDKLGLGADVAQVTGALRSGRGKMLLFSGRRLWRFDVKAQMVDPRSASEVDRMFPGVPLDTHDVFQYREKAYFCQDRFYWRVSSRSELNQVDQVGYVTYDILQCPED
Test: Inhibition of recombinant human proMMP9 using Mca-Lys-Pro-Leu-Gly-Leu-Dap(Dnp)-Ala-Arg-NH2 as substrate preincubated for 3 hrs followed by substrate addition and measured every 10 secs for 15 mins in presence of APMA by fluorometric assay
reported.property: IC50 (nM)
Provide the reading as a plain figure in nM.

For this compound ( O=C(NCC[C@@H](NS(=O)(=O)c1ccc(-c2ccccc2)cc1)C(=O)NO)c1cccc(C(=O)NCC[C@@H](NS(=O)(=O)c2ccc(-c3ccccc3)cc2)C(=O)NO)c1 ), measured IC50 is 1.25

Summary for this compound, COc1ccc(-c2ccc(S(=O)(=O)N(CCNC(=O)c3cccc(C(=O)NCCN([C@H](CCN4C(=O)c5ccccc5C4=O)C(=O)NO)S(=O)(=O)c4ccc(-c5ccc(OC)cc5)cc4)c3)[C@H](CCN3C(=O)c4ccccc4C3=O)C(=O)NO)cc2)cc1 : IC50 is 14

Entry COc1ccc(-c2ccc(S(=O)(=O)N(CCNC(=O)CCCNC(=O)c3cccc(C(=O)NCCCC(=O)NCCN([C@H](CCN4C(=O)c5ccccc5C4=O)C(=O)NO)S(=O)(=O)c4ccc(-c5ccc(OC)cc5)cc4)c3)[C@H](CCN3C(=O)c4ccccc4C3=O)C(=O)NO)cc2)cc1 ; IC50 = 2.1

Short answer for O=C(CCCNC(=O)c1cccc(C(=O)NCCCC(=O)NCC[C@@H](NS(=O)(=O)c2ccc(-c3ccccc3)cc2)C(=O)NO)c1)NCC[C@@H](NS(=O)(=O)c1ccc(-c2ccccc2)cc1)C(=O)NO : IC50 was 8.7

---

Target: Matrix metalloproteinase-14 (Homo sapiens, UniProt P50281)
Experiment: Inhibition of recombinant human MT1-MMP catalytic domain using Mca-Lys-Pro-Leu-Gly-Leu-Dap(Dnp)-Ala-Arg-NH2 as substrate preincubated for 3 hrs followed by substrate addition and measured every 10 secs for 15 min by fluorometric assay
reported.property: pIC50
// pIC50: -log10(molar conc.)

Memo: O=C(NCC[C@@H](NS(=O)(=O)c1ccc(-c2ccccc2)cc1)C(=O)NO)c1cccc(C(=O)NCC[C@@H](NS(=O)(=O)c2ccc(-c3ccccc3)cc2)C(=O)NO)c1 , reported pIC50: 7.10

What the record says about COc1ccc(-c2ccc(S(=O)(=O)N(CCNC(=O)CCCNC(=O)c3cccc(C(=O)NCCCC(=O)NCCN([C@H](CCN4C(=O)c5ccccc5C4=O)C(=O)NO)S(=O)(=O)c4ccc(-c5ccc(OC)cc5)cc4)c3)[C@H](CCN3C(=O)c4ccccc4C3=O)C(=O)NO)cc2)cc1 : pIC50 is 8.15

O=C(CCCNC(=O)c1cccc(C(=O)NCCCC(=O)NCC[C@@H](NS(=O)(=O)c2ccc(-c3ccccc3)cc2)C(=O)NO)c1)NCC[C@@H](NS(=O)(=O)c1ccc(-c2ccccc2)cc1)C(=O)NO yielded pIC50 of 7.39

The compound COc1ccc(-c2ccc(S(=O)(=O)N(CCNC(=O)c3cccc(C(=O)NCCN([C@H](CCN4C(=O)c5ccccc5C4=O)C(=O)NO)S(=O)(=O)c4ccc(-c5ccc(OC)cc5)cc4)c3)[C@H](CCN3C(=O)c4ccccc4C3=O)C(=O)NO)cc2)cc1 showed pIC50 equal to 7.85
